List of fold better than Parent (KD) values.
- TARGET ENTITY: T1, CEACAM1 (Sino Biological) (human, UniProt P13688 35-428, limits assumed)
- T1 construct: may be the same as CEACAM1-HIS; also called hCEACAM1; biotinylated soluble CEACAM1
- T1 sequence: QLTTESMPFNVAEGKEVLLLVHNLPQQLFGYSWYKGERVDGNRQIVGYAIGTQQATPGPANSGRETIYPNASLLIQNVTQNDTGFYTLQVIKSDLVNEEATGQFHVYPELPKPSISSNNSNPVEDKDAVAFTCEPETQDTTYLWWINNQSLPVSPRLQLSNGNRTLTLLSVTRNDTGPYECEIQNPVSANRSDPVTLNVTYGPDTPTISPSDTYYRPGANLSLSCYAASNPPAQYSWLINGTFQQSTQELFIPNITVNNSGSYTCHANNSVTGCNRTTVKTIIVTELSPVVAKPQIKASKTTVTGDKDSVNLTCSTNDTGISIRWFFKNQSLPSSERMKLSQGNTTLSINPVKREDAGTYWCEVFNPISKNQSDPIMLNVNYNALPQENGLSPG
- METHOD: SPR single-cycle
Answer with a number only, understood to be in fold.

Solved cases (2 shown):
He9/L17 (antibody, IgG4, V domains shown, IgG4 S241P, kappa; also called He9 / 17) VH: EVQLLESGGGLVQPGGSLRLSCAASGFSFSDYYLYWVRQAPGKGLEWVATISVGGGQTSYADSVKGRFTISRDNSKNTLYLQMNSLRAEDTAMYYCARAMYYGPAWFAYWGQGTLVTVSS VL: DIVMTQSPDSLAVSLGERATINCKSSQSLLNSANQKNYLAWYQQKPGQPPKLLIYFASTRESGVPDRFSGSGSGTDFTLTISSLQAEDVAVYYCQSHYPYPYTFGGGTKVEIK = 4.88
He4/L18 (antibody, IgG4, V domains shown, IgG4 S241P, kappa) VH: EVQLLESGGGLVQPGGSLRLSCAASGFSFSDYYLYWVRQAPGKGLEWVATISVGGGQTSYADSVKGRFTISRDNSKNTLYLQMNSLRAEDTAMYYCTRALYYGPAWFAYWGQGTLVTVSS VL: DIVMTQSPDSLAVSLGERATINCKSSQSLLNSANQKNYLAWYQQKPGQPPKLLIYFASTRESGVPDRFSGSGSGTDFTLTISSLQAEDVAVYYCQSHFPYPFTFGGGTKVEIK = 2.89

Attention now turns to another entry.
[ask] Name the reported fold better than Parent (KD) value associated with the binder He6/L19 (antibody, IgG4, V domains shown, IgG4 S241P, kappa) VH: EVQLLESGGGLVQPGGSLRLSCAASGFSFSDYYLYWVRQAPGKGLEWVATISVGGGQTSYADSVKGRFTISRDNSKNTLYLQMNSLRAEDTAMYYCARARTYGPAWFAYWGQGTLVTVSS VL: DIVMTQSPDSLAVSLGERATINCKSSQSLLNSANQKNYLAWYQQKPGQPPKLLIYFASTRESGVPDRFSGSGSGTDFTLTISSLQAEDVAVYYCQSHIYPNFTFGGGTKVEIK
[reply] 0.67
